Where do these numbers come from? They come from patent US20240335431A1.

MEASUREMENT_NOTES: Caco-2 cell monolayers intrinsic permeation assay in the presence of efflux inhibitors
Format: in vitro ADME
MEASUREMENT_SETUP: Caco-2, with efflux inhibitors
OBSERVABLE: Papp A→B (×10⁻⁶ cm/s)
Dear colleague, please return just the value in ×10⁻⁶ cm/s, with no unit written.

Papp A→B in this record for CCN(C(=O)c1cc(F)ccc1-n1c(C)c(C(=O)C2CCN(C(=O)[C@H]3N[C@@H]4CC[C@H]3C4)CC2)c2ccncc21)C(C)C : 0.3

Sure, the documented Papp A→B for CC(C)N(C(=O)c1cc(F)ccc1-n1cc(C(=O)C2CCN(C(=O)[C@H]3NC[C@@H]4CCC[C@@H]43)CC2)c2ccncc21)C(C)C is 1.7

Papp A→B in this record for CCN(C(=O)c1cc(F)ccc1-n1c(C)c(C(=O)C2CCN(C(=O)[C@H]3NC[C@@H]4C[C@@H]43)CC2)c2ccncc21)C(C)C : 1.9

Papp A→B for CC(C)N(C(=O)c1cc(F)ccc1-n1cc(C(=O)C2CCN(C(=O)[C@H]3N[C@@H]4CC[C@H]3C4)CC2)c2ccncc21)C(C)C is 0.6

O=C(c1cn(-c2ccc(F)cc2-c2cncnc2C2CC2)c2cnccc12)C1CCN(C(=O)[C@H]2N[C@@H]3CC[C@H]2C3)CC1 yielded Papp A→B of 0.3

Please fill in: Papp A→B reported for CC(C)N(C(=O)c1cc(F)ccc1-n1cc(C(=O)[C@@H]2CCN(C[C@H]3CC[C@H](NS(C)(=O)=O)CC3)C2)c2ccncc21)C(C)C = 2

* * *

MEASUREMENT_NOTES: Human liver microsomes (HLMs) intrinsic clearance assay
Assay type: in vitro ADME
MEASUREMENT_SETUP: human, microsomes, pH 7.4, HLM CLint
For each record, write down the corresponding log10 microsomal CLint at 1 µM.
In plain terms, each number is the log10 of measured microsomal CLint at 1 µM in µL/min/mg.

Recorded result, CCN(C(=O)c1cc(F)ccc1-n1cc(C(=O)C2CN(C(=O)[C@H]3NC4CCC3CC4)C2)c2ccncc21)C(C)C , log10 microsomal CLint at 1 µM: 1.43

Data point: C[C@@H]1COC[C@H](C)N1C(=O)c1cc(F)ccc1-n1cc(C(=O)C2CCN(C(=O)[C@H]3N[C@@H]4CC[C@H]3C4)CC2)c2ccncc21 ; log10 microsomal CLint at 1 µM = 0.70

Form field log10 microsomal CLint at 1 µM, entry O=C(c1cn(-c2ccc(F)cc2-c2cncnc2C2CC2)c2cnccc12)C1CCN(C(=O)[C@H]2N[C@@H]3CC[C@H]2C3)CC1 : 1.26

Summary for this compound, CC(C)N(C(=O)c1cc(F)ccc1-n1cc(C(=O)[C@@H]2CCCN(C(=O)[C@H]3N[C@@H]4CC[C@H]3C4)CC2)c2ccncc21)C(C)C (relative stereo) : log10 microsomal CLint at 1 µM is 2.14

log10 microsomal CLint at 1 µM recorded for this compound, Cc1c(C(=O)C2CCN(C(=O)[C@H]3NC[C@@H]4C[C@@H]43)CC2)c2ccncc2n1-c1ccc(F)cc1C(=O)N(C(C)C)C(C)C (single isomer, unassigned) , is 2.10

log10 microsomal CLint at 1 µM in this record for CCN(C(=O)c1cc(F)ccc1-n1cc(C(=O)C2CCN(C(=O)[C@H]3NC[C@@H]4C[C@@H]43)CC2)c2ccncc21)C(C)C : 1.61
